tested on: Canis familiaris; experiment: In vivo contractility in anesthetized dog expressed as dose which produced a 50% increase in dP/dt max from the control value.; assay type: functional; details: Canis lupus familiaris
Kindly supply the reported ED50 values for the records listed here.

• Cc1[nH]c(=O)c(C#N)cc1-c1ccncc1 = 0.15 mg/kg
• COc1cc([S+](C)[O-])ccc1-c1nc2cccnc2[nH]1 (centres undefined) = 1 mg/kg
• O=C1CCC(c2ccc(Nc3ccncc3)cc2)=NN1 = 0.009 mg/kg

Under Canis familiaris: ED50 value of c1ccc(-c2nc3cc(-n4ccnc4)ccc3[nH]2)nc1 ? > 3 mg/kg

---

test system: Canis familiaris; test: In vivo hypotension in anesthetized dog, expressed as the dose of the drug producing a 25% decrease in diastolic arterial pressure (DAP) from control value.; type: functional; settings: Canis lupus familiaris, Artery
MEASUREMENT KIND: ED25 (mg/kg)
Answers are plain numbers, in mg/kg.

Reference set (2 entries):
- O=C1CCC(c2ccc(Nc3ccncc3)cc2)=NN1 [SENAZODAN]: 0.1
- Cc1[nH]c(=O)c(C#N)cc1-c1ccncc1 [MILRINONE]: 1

For the compound shown here, COc1cc([S+](C)[O-])ccc1-c1nc2cccnc2[nH]1 (centres undefined) [SULMAZOLE] , give the reported ED25. 5
